# Ki listing for each entry below
target: TYK2 (Homo sapiens (Human))
Sequence (P29597 whole entry): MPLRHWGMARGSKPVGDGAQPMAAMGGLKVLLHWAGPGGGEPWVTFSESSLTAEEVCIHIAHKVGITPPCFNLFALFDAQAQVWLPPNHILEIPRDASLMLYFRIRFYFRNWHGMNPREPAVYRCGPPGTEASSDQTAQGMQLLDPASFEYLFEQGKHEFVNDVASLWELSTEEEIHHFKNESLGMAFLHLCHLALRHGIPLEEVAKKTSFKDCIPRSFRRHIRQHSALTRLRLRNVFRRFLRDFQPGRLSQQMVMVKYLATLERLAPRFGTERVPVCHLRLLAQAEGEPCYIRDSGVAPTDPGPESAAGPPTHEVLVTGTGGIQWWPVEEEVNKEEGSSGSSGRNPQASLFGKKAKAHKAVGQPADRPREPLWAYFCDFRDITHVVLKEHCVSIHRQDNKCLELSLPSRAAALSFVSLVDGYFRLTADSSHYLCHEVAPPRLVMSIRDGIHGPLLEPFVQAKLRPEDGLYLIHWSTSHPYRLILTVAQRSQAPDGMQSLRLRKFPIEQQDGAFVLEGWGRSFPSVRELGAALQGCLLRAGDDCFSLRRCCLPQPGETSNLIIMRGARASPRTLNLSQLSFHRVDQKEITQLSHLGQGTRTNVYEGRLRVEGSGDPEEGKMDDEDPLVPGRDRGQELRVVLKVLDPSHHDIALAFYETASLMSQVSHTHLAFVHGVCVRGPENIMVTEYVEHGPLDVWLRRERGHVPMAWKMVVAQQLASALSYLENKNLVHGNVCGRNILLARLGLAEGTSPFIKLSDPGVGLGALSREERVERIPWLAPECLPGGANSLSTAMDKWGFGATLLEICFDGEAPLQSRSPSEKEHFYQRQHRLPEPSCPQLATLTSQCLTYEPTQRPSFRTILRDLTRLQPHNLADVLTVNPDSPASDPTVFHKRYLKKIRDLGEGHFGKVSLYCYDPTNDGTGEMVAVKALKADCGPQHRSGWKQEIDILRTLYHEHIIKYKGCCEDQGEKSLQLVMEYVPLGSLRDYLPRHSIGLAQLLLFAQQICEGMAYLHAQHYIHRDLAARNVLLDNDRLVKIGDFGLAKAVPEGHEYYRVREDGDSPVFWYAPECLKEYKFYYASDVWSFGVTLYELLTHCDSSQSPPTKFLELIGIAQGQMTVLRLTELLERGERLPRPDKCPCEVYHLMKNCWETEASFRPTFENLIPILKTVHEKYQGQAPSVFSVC

Example results:
N#Cc1cccc(F)c1-c1cc(-n2ccc(N3CCCNC(=O)C3)n2)c2c(n1)CNC2=O	0.1 to 10 nM
CCNC(=O)[C@H]1CCCN(c2ccn(-c3cc(-c4c(F)cccc4C#N)nc4c3C(=O)NC4)n2)C1	0.1 to 10 nM
N#Cc1cccc(F)c1-c1cc(-n2ccc(N3CC[C@]4(CCNC4=O)C3)n2)c2c(n1)CNC2=O	0.1 to 10 nM

Reported Ki for N#Cc1cccc(F)c1-c1cc(-n2ccc(N3CC[C@H](C#N)C3)n2)c2c(n1)CNC2=O : what is it?
0.1 to 10 nM

Give its Ki value. Item: N#Cc1cccc(F)c1-c1cc(-n2ccc(N3CCCC(C(=O)N4CCCC4)C3)n2)c2c(n1)CNC2=O (stereo not shown)
0.1 to 10 nM

Bench note: what Ki did C[C@@]1(O)CCN(c2ccn(-c3cc(-c4c(F)cccc4C#N)nc4c3C(=O)NC4)n2)C1 show?
0.1 to 10 nM

What value of measured Ki is listed for N#Cc1cccc(F)c1-c1cc(-n2ccc(N3C[C@H]4CC[C@@H](C3)O4)n2)c2c(n1)CNC2=O ?
0.009 to 0.1 nM

Using the record for CN(C)[C@H]1CC[C@H](Nc2ccn(-c3cc(-c4c(F)cccc4C#N)nc4c3C(=O)NC4)n2)CC1 , report its Ki.
0.1 to 10 nM

Dear colleague, I am looking for the recorded Ki of the following compound: N#Cc1cccc(F)c1-c1cc(-n2ccc(N3C[C@@H]4OCCO[C@@H]4C3)n2)c2c(n1)CNC2=O
0.1 to 10 nM
